All figures here come from ChEMBL document CHEMBL1135150.

molecular target: Vitamin D3 receptor (Sus scrofa domesticus); assay: The affinity to the pig intestinal mucosa vitamin D receptor was evaluated in vitro, results expressed as percentage activity at 50% dose response; format: tissue-based
readout_kind: Activity (%)
One number for each entry, in %.

The examples below pair each entry with its known result.
# molecular_string, assay_target, measured_number
records = [
    ("C=C1C(=CC=C[C@@H]2CC[C@](C)(CCCCC(C)(C)O)C2(C)C)C[C@@H](O)C[C@@H]1O", "Vitamin D3 receptor (Sus scrofa domesticus)", 30),
    ("C=C1C(=CC=C[C@@H]2CC[C@](C)(CCCC(F)(F)C(C)(C)O)C2(C)C)C[C@@H](O)C[C@@H]1O", "Vitamin D3 receptor (Sus scrofa domesticus)", 75),
    ("C=C1C(=CC=C[C@@H]2CC[C@](C)(/C=C\\CCC(O)(C(F)(F)F)C(F)(F)F)C2(C)C)C[C@@H](O)C[C@@H]1O", "Vitamin D3 receptor (Sus scrofa domesticus)", 80),
    ("C=C1C(=CC=C[C@@H]2CC[C@](C)(CCCCC(O)(C(F)(F)F)C(F)(F)F)C2(C)C)C[C@@H](O)C[C@@H]1O", "Vitamin D3 receptor (Sus scrofa domesticus)", 80),
    ("CC(C)(O)CCCC[C@@]1(C)CC[C@@H](/C=C/C=C2C[C@@H](O)C[C@H](O)C2)C1(C)C", "Vitamin D3 receptor (Sus scrofa domesticus)", 40),
]

Provide reported Activity for each item, in the same order as listed.
1. CC1(C)[C@H](/C=C/C=C2C[C@@H](O)C[C@H](O)C2)CC[C@]1(C)CCC#CC(O)(C(F)(F)F)C(F)(F)F
2. C=C1C(=CC=C[C@@H]2CC[C@](C)(/C=C\CC(F)(F)C(C)(C)O)C2(C)C)C[C@@H](O)C[C@@H]1O
3. C=C1/C(=C\C=C\[C@@H]2CC[C@](C)(CCC#CC(C)(C)O)C2(C)C)C[C@@H](O)C[C@@H]1O
4. CCC(O)(CC)CCCC[C@@]1(C)CC[C@@H](/C=C/C=C2C[C@@H](O)C[C@H](O)C2)C1(C)C
5. CC(C)(O)C#CCC[C@@]1(C)CC[C@@H](/C=C/C=C2C[C@@H](O)C[C@H](O)C2)C1(C)C

1. 100
2. 40
3. 9
4. 75
5. 60
